# method.description: modulators of MEP2-GFP levels in yeast, confirmation, S. cerevisiae, flow cytometry GFP, cherry picks (AID 2272);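 also: ratio of well signal to plate DMSO mean so 100% equals DMSO level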
# reported.conditions: S. cerevisiae MEP2-GFP strain, 3 h, at 10 µM, stronger effect = higher value
The source made the active and inactive calls.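 The calls were made as follows: active = GFP response above 150% of the DMSO control; inconclusive = Fewer than 70 cells counted for a yeast strain; inactive = the rest.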
GFP response vs DMSO: recorded values
measurement.type: GFP response vs DMSO

* COc1cc(/C=C2\N=C(c3ccccc3)OC2=O)ccc1OC(C)=O | 112% (inactive)
* CCOc1cc(/C=C2\N=C(C)OC2=O)cc(Br)c1OCC(=O)OC | 102% (inactive)
* O=C1CC(SCc2nc3ccccc3[nH]2)C(=O)N1c1ccc(F)cc1 (stereo unspecified) | 110% (inactive)
* CCCS(=O)(=O)N1CCC(C(=O)c2cccc(C(F)(F)F)c2)CC1 | 100% (inactive)
* CN=C(NC)SC1CC(=O)N(c2ccccc2)C1=O (stereo unspecified) | 97.8% (inactive)
* Cc1csc(Nc2ccccc2C(F)(F)F)n1 | 101% (inactive)
* CC(=O)c1ccc(N2CCN(C(=O)c3ccc(Br)cc3)CC2)c(F)c1 | 117% (inactive)
* CCCCNC(=O)c1cc2c(=O)n3cccc(C)c3nc2n(Cc2ccncc2)c1=N | 102% (inactive)
* C=CCn1c(=O)c(C(=O)Nc2ccccc2O)c(O)c2ccccc21 | 105% (inactive)
* COc1ccccc1C(=O)NNC(=O)C(=O)Nc1cccc(Cl)c1C | 116% (inactive)
* CCCc1nnc(N2C(=O)c3cccc4cccc(c34)C2=O)s1 | 103% (inactive)

----------
# method.description: RPL19A-GFP modulators, yeast TOR pathway, confirmation, cell-based, S. cerevisiae, flow cytometry, cherry picks, mother/daughter gates (AID 2270)
# reported.conditions: S. cerevisiae RPL19A-GFP strain, 3 h, measured here: daughter cell gate, at 10 µM, stronger effect = lower value, 100 = same GFP as DMSO wells
GFP response vs DMSO: recorded values
measurement.type: GFP response vs DMSO (%)

- O=C(O)CCc1ccc(-c2ccccc2)o1: 92.6
- O=C(c1ccc([N+](=O)[O-])o1)N1CCN(c2nc3ccc(F)cc3s2)CC1: 100
- CCOC(=O)c1ccc(NC(=O)CCc2nc(-c3ccc(C)cc3)no2)cc1: 102
- C=CCOc1ccccc1C(=O)/C=C1/C(=O)Nc2ccccc21: 102
- CCCN1CCc2c(sc(NC(=S)NC(=O)c3ccccc3)c2C#N)C1: 99.6
- COc1ccc(N/N=C(\C#N)C(N)=O)cc1: 64.6

----------
# method.description: modulators of MEP2-GFP levels in yeast, confirmation, S. cerevisiae, flow cytometry GFP, cherry picks (AID 2272);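 also: ratio of well signal to plate DMSO mean so 100% equals DMSO level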
# reported.conditions: S. cerevisiae MEP2-GFP strain, 3 h, at 10 µM, stronger effect = higher value
GFP response vs DMSO: recorded values
measurement.type: GFP response vs DMSO (%)

- CCNC(=O)/C(C#N)=C/c1c(N2CC(C)OC(C)C2)nc2ccccn2c1=O (stereo unspecified): 99
- Cc1cc(C)c2c(c1)/C(=C/C(=O)c1ccc(Br)s1)C(=O)N2: 105
- CCc1nnc(NC(=O)c2nc(S(=O)(=O)Cc3cccc(C)c3)ncc2Cl)s1: 104
- O=C(O)COc1c(-c2ccc(Cl)cc2)oc2ccccc2c1=O: 102
- CCC(=O)Nc1nc(C)c(-c2csc(Nc3cccc(C(=O)O)c3)n2)s1: 101
- O=C1C(Cl)=C(NCCc2ccccc2)C(=O)N1CCc1ccccc1: 112
- Cc1cccc(N2C(=O)CC(Sc3nc(C)c4c(n3)CCCC4)C2=O)c1 (stereo unspecified): 102
- CC(C)(C)C(=O)NC(=S)NNC(=O)c1ccc(-c2ccccc2)cc1: 141
- CCN(CC)N=Nc1[nH]nc2nc(C)cc(C)c12: 137
- O=C(Nc1cccc(Cl)c1N1CCCC1)c1ccc([N+](=O)[O-])o1: 100
- O=C(C1CCN(Cc2nc(Cc3cccc(F)c3)no2)CC1)N1CCOCC1: 100

Entry source: PubChem BioAssay
